Assign pIC50 to each entry below.
biological target: human JAK1 (a.a. 837-1142) (Homo sapiens, UniProt P23458); construct: human JAK1 (a.a. 837-1142); His tag (N); made in house; host or cells: insect cells (baculovirus); assay: In vitro JAK kinase assay (HTRF, phosphorylation of a biotinylated peptide), JAK1; assay type: biochemical; settings: Table B1; read-out: JAK1 IC50
Sequence (P23458 849-1154): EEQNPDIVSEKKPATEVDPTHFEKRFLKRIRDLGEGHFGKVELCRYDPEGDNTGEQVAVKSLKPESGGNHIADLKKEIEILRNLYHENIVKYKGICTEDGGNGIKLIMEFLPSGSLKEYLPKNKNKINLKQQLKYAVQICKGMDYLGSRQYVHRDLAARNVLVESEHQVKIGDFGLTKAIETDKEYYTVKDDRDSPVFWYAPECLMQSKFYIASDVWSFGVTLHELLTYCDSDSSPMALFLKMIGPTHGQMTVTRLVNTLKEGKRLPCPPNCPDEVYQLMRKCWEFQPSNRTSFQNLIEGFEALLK
Structures can show the parent of a compound that is named as a salt.
pIC50 is a log-scale quantity: -log10 of the concentration expressed in molar.

Task item: Tell me the measured pIC50 of Clc1nccc(N2CCN(Cc3cc4cc(c3)Nc3nc(ncc3Cl)Nc3cccc(c3)CC4)CC2)n1 [Example B218, tris(trifluoroacetate)] , please.
Reply: 6.79

Task item: Which pIC50 value is on record for O=C(Nc1ccc2cc1CCc1cncc(c1)Nc1ncc(Cl)c(n1)N2)N[C@H]1CCN(C(=O)c2cc(C3CC3)on2)C1 [Example B270, bis(trifluoroacetate)] ?
Reply: 7.70

Task item: Suppose we examine the compound COc1ccc(C(=O)Nc2ccc3cc2CCc2cccc(c2)Nc2ncc(Cl)c(n2)N3)cc1 [Example B67, trifluoroacetate] ; what pIC50 value has been reported?
Reply: 8.49

Task item: Entry under review: O=C(Nc1ccc2cc1CCc1cccc(c1)Nc1ncc(Cl)c(n1)N2)Nc1cccc2ccccc12 [Example B124, trifluoroacetate] . Reported pIC50?
Reply: 8.41

Task item: // returns reported pIC50 for input Clc1cnc2nc1Nc1cc(cc(CN3CCN(Cc4ccc(Oc5ncccn5)cc4)CC3)c1)CCc1cccc(c1)N2 [Example B193, tris(trifluoroacetate)]
Reply: 7.26

Task item: So what's the measured pIC50 for this one? CNC(=O)N1CC[C@H](NC(=O)Nc2ccc3cc2CCc2cccc(c2)Nc2ncc(Cl)c(n2)N3)C1
Reply: 8.48

====

Answer each item with its documented IC50.
target: TYK2 (Homo sapiens, UniProt P29597); experiment: TYK2 kinase inhibition (Table A1); type: biochemical; conditions: Table D1
Sequence (P29597 whole entry): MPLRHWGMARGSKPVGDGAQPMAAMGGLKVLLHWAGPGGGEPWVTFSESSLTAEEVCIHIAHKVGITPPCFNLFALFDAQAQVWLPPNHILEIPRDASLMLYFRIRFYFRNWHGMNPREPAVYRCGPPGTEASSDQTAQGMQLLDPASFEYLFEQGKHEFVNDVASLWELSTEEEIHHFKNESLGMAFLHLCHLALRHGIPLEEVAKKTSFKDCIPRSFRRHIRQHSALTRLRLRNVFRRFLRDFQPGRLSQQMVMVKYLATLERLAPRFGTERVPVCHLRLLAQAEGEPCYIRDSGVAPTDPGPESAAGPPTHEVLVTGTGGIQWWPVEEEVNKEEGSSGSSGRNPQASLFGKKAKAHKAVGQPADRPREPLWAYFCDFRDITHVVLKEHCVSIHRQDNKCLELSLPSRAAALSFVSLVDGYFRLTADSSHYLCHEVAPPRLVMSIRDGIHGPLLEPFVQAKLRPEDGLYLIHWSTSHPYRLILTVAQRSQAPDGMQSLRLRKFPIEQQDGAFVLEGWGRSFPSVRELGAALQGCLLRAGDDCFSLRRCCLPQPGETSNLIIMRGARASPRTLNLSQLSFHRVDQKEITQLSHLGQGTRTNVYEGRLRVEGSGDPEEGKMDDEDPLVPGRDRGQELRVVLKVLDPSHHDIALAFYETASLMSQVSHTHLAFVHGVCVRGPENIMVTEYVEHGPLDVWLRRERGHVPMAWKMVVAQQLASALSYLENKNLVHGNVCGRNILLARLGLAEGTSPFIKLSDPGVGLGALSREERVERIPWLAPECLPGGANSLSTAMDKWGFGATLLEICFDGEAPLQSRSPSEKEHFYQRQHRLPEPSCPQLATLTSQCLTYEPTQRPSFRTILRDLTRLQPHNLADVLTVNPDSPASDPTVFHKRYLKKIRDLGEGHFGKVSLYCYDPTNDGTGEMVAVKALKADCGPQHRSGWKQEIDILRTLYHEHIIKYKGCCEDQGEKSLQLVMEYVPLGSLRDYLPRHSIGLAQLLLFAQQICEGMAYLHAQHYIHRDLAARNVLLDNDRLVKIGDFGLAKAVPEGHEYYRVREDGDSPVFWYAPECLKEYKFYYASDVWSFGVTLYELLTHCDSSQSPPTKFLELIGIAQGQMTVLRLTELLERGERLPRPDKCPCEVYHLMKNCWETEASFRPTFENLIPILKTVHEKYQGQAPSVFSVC
Structures can show the parent of a compound that is named as a salt.

Task item: What value of measured IC50 is listed for Clc1cnc2nc1Nc1cccc(c1)SCCc1cccc(c1)N2 [Example D18, trifluoroacetate] ?
Reply: 19 nM

Task item: Any idea what its IC50 is? The compound is Clc1cnc2nc1Nc1cccc(c1)OCCc1cc(CN3CCNCC3)cc(c1)N2 [Example D191, tris(trifluoroacetate)]
Reply: 8.9 nM

Task item: Any idea what IC50 was measured for Cc1cc(C(=O)N2CCC(COc3ccc4cc3CCc3cncc(c3)Nc3ncc(Cl)c(n3)N4)CC2)no1 [Example D226, bis(trifluoroacetate)] ?
Reply: > 400 nM

Task item: Look up IC50 for this compound: O=C(Nc1ccccc1)c1cc2cc(c1)OCCSc1cccc(c1)Nc1nc(ncc1Cl)N2 [Example D50, trifluoroacetate]
Reply: 16 nM

====

So I've got a bunch of compounds here, and I need their pIC50 values.
target: human JAK1 (a.a. 837-1142) (Homo sapiens); construct: human JAK1 (a.a. 837-1142); His tag (N); made in house; host or cells: insect cells (baculovirus); assay: In vitro JAK kinase assay (HTRF, phosphorylation of a biotinylated peptide), JAK1; type: biochemical; details: Table D1; read-out: JAK1 IC50
Where a name gives a salt, the structure may show the parent alone.
Value format note: pIC50 is -log10 of concentration (mol/L); just state the number.

Task item: // returns reported pIC50 for input O=C(C[C@H]1CCN(C(=O)c2nccs2)C1)Nc1ccc2cc1CCc1cncc(c1)Nc1ncc(Cl)c(n1)N2 [Example D110, bis(trifluoroacetate)]
Reply: 7.66

Task item: Given the entry NC1CCN(c2ccc3cc2CCc2cccc(c2)Nc2ncc(Cl)c(n2)N3)C1 (stereo not shown) [Example D88, tris(trifluoroacetate)] , report its measured pIC50.
Reply: 7.72

Task item: Quick check: pIC50 of Cn1ccc(C(=O)N2CC[C@H](CC(=O)Nc3ccc4cc3CCc3cncc(c3)Nc3ncc(Cl)c(n3)N4)C2)n1 [Example D106, bis(trifluoroacetate)] ?
Reply: 7.49

Task item: Would you kindly share the measured pIC50 for Cc1oncc1C(=O)N1CCC(CCOc2ccc3cc2CCc2cncc(c2)Nc2ncc(Cl)c(n2)N3)CC1 [Example D178, bis(trifluoroacetate)] ?
Reply: 6.58

Task item: Which pIC50 value belongs to CC(=O)N1CCN(c2ccc3cc2CCc2cccc(c2)Nc2ncc(Cl)c(n2)N3)CC1 [Example D85, bis(trifluoroacetate)] ?
Reply: 7.62

Task item: # query: pIC50 of entry O=C(c1ccncc1)N1CCC(CCOc2ccc3cc2CCc2cncc(c2)Nc2ncc(Cl)c(n2)N3)CC1 [Example D181, tris(trifluoroacetate)]
Reply: 6.94

Task item: Quick check: pIC50 of CC(=O)N1CCC[C@H](CC(=O)Nc2ccc3cc2CCc2cncc(c2)Nc2ncc(Cl)c(n2)N3)C1 [Example D205, bis(trifluoroacetate)] ?
Reply: 8.15

Task item: What does the data say about its pIC50? Entry: O=C(NCc1ccccc1)Nc1cc2cc(c1)OCCSc1cccc(c1)Nc1nc(ncc1Cl)N2 [Example D66, trifluoroacetate]
Reply: 8.14

Task item: I have this compound here, CN1c2cccc(c2)CCc2cncc(c2)Nc2nccc1n2 [Example D224, bis(trifluoroacetate)] , and I need its recorded pIC50.
Reply: 6.52

Task item: Requested read-out: pIC50. Entry: Clc1cnc2nc1Nc1cccc(c1)SCCOc1cccc(c1)N2 [Example D11, trifluoroacetate]
Reply: 8.47

Task item: Query (compound): O=C(NCc1ccccc1)N1CCN(c2ccc(-c3cc4cc(c3)Nc3ncc(Cl)c(n3)Nc3cccc(c3)OCC4)cn2)CC1 [Example D48, bis(trifluoroacetate)] ; field requested: pIC50
Reply: 8.31

Task item: Which pIC50 is reported for this compound? O=C(CC1CN(C(=O)c2ccn[nH]2)C1)Nc1ccc2cc1CCc1cncc(c1)Nc1ncc(Cl)c(n1)N2 [Example D150, bis(trifluoroacetate)]
Reply: 7.48

Task item: Can you look up the measured pIC50 of O=C(C[C@H]1CCCN(C(=O)c2ccccc2)C1)Nc1ccc2cc1CCc1cccc(c1)Nc1ncc(Cl)c(n1)N2 [Example D203, trifluoroacetate] for me?
Reply: 7.49

====

biological target: human JAK2 (a.a. 828-1132) (Homo sapiens, UniProt O60674); construct: JAK2 (a.a. 828-1132); His tag (N); made in house; host or cells: insect cells (baculovirus); assay: In vitro JAK kinase assay (HTRF, phosphorylation of a biotinylated peptide), JAK2; assay type: biochemical; conditions: method AA1 (30 μM ATP) or AA2 (1000 μM ATP), not stated per value
Sequence (O60674 828-1132): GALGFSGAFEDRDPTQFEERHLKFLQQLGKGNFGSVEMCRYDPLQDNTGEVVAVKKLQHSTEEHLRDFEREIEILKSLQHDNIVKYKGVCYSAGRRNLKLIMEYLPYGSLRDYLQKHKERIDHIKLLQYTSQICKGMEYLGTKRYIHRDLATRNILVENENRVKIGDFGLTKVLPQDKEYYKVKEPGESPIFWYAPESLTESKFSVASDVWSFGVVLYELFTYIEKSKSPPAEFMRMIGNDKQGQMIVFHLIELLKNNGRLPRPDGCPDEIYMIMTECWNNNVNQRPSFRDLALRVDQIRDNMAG
Where a name gives a salt, the structure may show the parent alone.
Assign labels as follows, please: 1 for IC50 below 9 nM; -1 for IC50 equal to or exceeding 9 nM.

Task item: Hello, I'm reviewing records and need to know if IC50 of CCOC(=O)CNC(=O)N1CCC(C(=O)Nc2ccc3cc2CCc2cccc(c2)Nc2ncc(Cl)c(n2)N3)CC1 [Example A60, trifluoroacetate] is below 9 nM. Could you check?
Reply: 1

Task item: Regarding O=C(CC1CCN(C(=O)c2ccccc2)CC1)Nc1ccc2cc1CCc1cccc(c1)Nc1ncc(Cl)c(n1)N2 [Example A56, trifluoroacetate] , kindly confirm whether its IC50 is beneath 9 nM.
Reply: 1

Task item: Item Cc1nc(S(=O)(=O)N2CCC(CC(=O)Nc3ccc4cc3CCc3cncc(c3)Nc3ncc(Cl)c(n3)N4)CC2)cn1C [Example A230, bis(trifluoroacetate)] : IC50 beneath 9 nM, strictly?
Reply: -1

Task item: Input CC(C)(C)OC(=O)N1CCC(C(=O)Nc2ccc3cc2CCc2cccc(c2)Nc2ncc(Cl)c(n2)N3)CC1 [Example A27, trifluoroacetate] ; condition: IC50 strictly below 9 nM. Does it hold?
Reply: -1

Task item: Please check: IC50 for O=C(CC1CCN(C(=O)Nc2cccnc2)CC1)Nc1ccc2cc1CCc1cncc(c1)Nc1ncc(Cl)c(n1)N2 [Example A144, bis(trifluoroacetate)] , strictly under 9 nM or not?
Reply: 1

Task item: Say whether its IC50 is strictly beneath 9 nM. Entry: O=C(CC1CCN(C(=O)c2ccc(F)cc2)CC1)Nc1ccc2cc1CCc1cccc(c1)Nc1ncc(Cl)c(n1)N2 [Example A203, trifluoroacetate]
Reply: -1

Task item: Find out if reported IC50 for O=C(Nc1ccc2cc1CCc1cccc(c1)Nc1ncc(Cl)c(n1)N2)[C@@H]1CCN(C(=O)c2ccccc2)C1 [Example A52, trifluoroacetate] is less than 9 nM
Reply: 1

Task item: Confirm or reject: IC50 of O=C(CC1CCN(C(=O)c2ccc(F)cc2F)CC1)Nc1ccc2cc1CCc1cccc(c1)Nc1ncc(Cl)c(n1)N2 [Example A204, trifluoroacetate] lies strictly below 9 nM
Reply: -1

Task item: Identify whether the molecule O=C(CC1CCN(C(=O)c2ccncc2)CC1)Nc1ccc2cc1CCc1cncc(c1)Nc1ncc(Cl)c(n1)N2 [Example A189, tris(trifluoroacetate)] records IC50 below 9 nM.
Reply: -1

Task item: Input O=C(Nc1ccc2cc1CCc1cccc(c1)Nc1ncc(Cl)c(n1)N2)C1CCN(C(=O)c2ccc3c(c2)OCO3)CC1 [Example A31, trifluoroacetate] ; condition: IC50 strictly below 9 nM. Does it hold?
Reply: -1

Task item: Does NC(=O)COc1ccc2cc1CCc1cccc(c1)Nc1ncc(Cl)c(n1)N2 [Example A15, trifluoroacetate] have IC50 strictly under 9 nM?
Reply: 1

Task item: A record lists O=C(CC1CCN(C(=O)c2c[nH]nn2)CC1)Nc1ccc2cc1CCc1cncc(c1)Nc1ncc(Cl)c(n1)N2 [Example A137, bis(trifluoroacetate)] . Is its IC50 below 9 nM?
Reply: 1

Task item: Please check: IC50 for Cc1cc(C(=O)N2CCC(CC(=O)Nc3ccc4cc3CCc3cccc(c3)Nc3ncc(Cl)c(n3)N4)CC2)n[nH]1 [Example A175, bis(trifluoroacetate)] , strictly under 9 nM or not?
Reply: -1

Task item: Could you please tell me whether IC50 recorded for Clc1cnc2nc1Nc1ccc(OC3CCCC3)c(c1)CCc1cccc(c1)N2 [Example A14, trifluoroacetate] is less than 9 nM?
Reply: -1

Task item: Input CC(=O)N1CCCC(C(=O)Nc2ccc3cc2CCc2cccc(c2)Nc2ncc(Cl)c(n2)N3)C1 (stereo not shown) [Example A47, trifluoroacetate] ; condition: IC50 strictly below 9 nM. Does it hold?
Reply: 1

Task item: Just wondering, is IC50 of O=C(CC1CCN(C(=O)c2cnon2)CC1)Nc1ccc2cc1CCc1cncc(c1)Nc1ncc(Cl)c(n1)N2 [Example A138, bis(trifluoroacetate)] below 9 nM?
Reply: 1

Task item: Identify whether the molecule O=C(CC1CCN(c2cnccn2)CC1)Nc1ccc2cc1CCc1cncc(c1)Nc1ncc(Cl)c(n1)N2 [Example A171, tris(trifluoroacetate)] records IC50 below 9 nM.
Reply: -1

Task item: # TODO verify IC50 < 9 nM strictly for this molecule: O=C(CN1CCNCC1)Nc1ccc2cc1CCc1cccc(c1)Nc1ncc(Cl)c(n1)N2 [Example A114, tris(trifluoroacetate)]
Reply: -1

Task item: Consider the molecule CC(C)NC(=O)N1CCC(CC(=O)Nc2ccc3cc2CCc2cncc(c2)Nc2ncc(Cl)c(n2)N3)CC1 [Example A99, bis(trifluoroacetate)] . Is its IC50 strictly less than 9 nM?
Reply: -1

Task item: I wonder whether O=C(CC1CCN(C(=O)c2ccno2)CC1)Nc1ccc2cc1CCc1cncc(c1)Nc1ncc(Cl)c(n1)N2 [Example A128, bis(trifluoroacetate)] has IC50 below 9 nM. Can you tell?
Reply: 1

Task item: Strictly below 9 nM in IC50? O=C(COc1ccc2cc1CCc1cccc(c1)Nc1ncc(Cl)c(n1)N2)N1CCN(C(=O)Nc2ccc(Cl)nc2)CC1 [Example A10]
Reply: -1

Task item: is_below(IC50, 9 nM) for N#Cc1cccnc1N1CCC(CC(=O)Nc2ccc3cc2CCc2cncc(c2)Nc2ncc(Cl)c(n2)N3)CC1 [Example A177, tris(trifluoroacetate)] ?
Reply: -1

Task item: Lab note: IC50 threshold 9 nM. Does this molecule come in strictly under it? Cc1nccc(N2CCC(CC(=O)Nc3ccc4cc3CCc3cncc(c3)Nc3ncc(Cl)c(n3)N4)CC2)n1 [Example A182, tris(trifluoroacetate)]
Reply: -1

Task item: Hi there! Is IC50 for CC(=O)N1CC[C@@H](C(=O)Nc2ccc3cc2CCc2cccc(c2)Nc2ncc(Cl)c(n2)N3)C1 [Example A51, trifluoroacetate] below 9 nM, do you know?
Reply: 1
